Entries and their melting point

compound=CCOC(=O)C(=O)Nc1ccc2c(=O)n3c(nc2c1)C(=Cc1ccccc1)CC3 result="248 to 250 °C"
compound=CC(=O)NCCCCCNc1ccc(NCCN(C)C)c2c1C(=O)c1ccccc1C2=O result="138 to 139 °C"

Prompt line: Indicate its recorded melting point; the compound in question is COc1ccc(NC(=O)c2ccccc2NS(=O)(=O)c2ccc(C)cc2)cc1Cl
Response line: 181 to 182 °C

Prompt line: Indicate its recorded melting point; the compound in question is CC(=O)OC1CC2(C)C(=O)CCC2C2C(C)CC3=CC(=O)CCC3C12 (stereo not given)
Response line: 183 °C

Prompt line: Indicate its recorded melting point; the compound in question is COc1c(OCc2ccc(-c3ccccc3S(=O)(=O)Nc3onc(C)c3C)c(COCCF)c2)cc(C)nc1C
Response line: 90 to 95 °C

Prompt line: Indicate its recorded melting point; the compound in question is Cc1nc(N)nc(N)c1-c1cccc2ccccc12
Response line: 224 to 225 °C

Prompt line: Indicate its recorded melting point; the compound in question is CS(=O)(=O)N1CCN(C(=O)Cl)C1=O
Response line: 178 °C

Prompt line: Indicate its recorded melting point; the compound in question is Cc1c(C(=O)Nc2ccc(OCC(C)C)c(C#N)c2)cnn1C
Response line: 160 to 162 °C

Prompt line: Indicate its recorded melting point; the compound in question is CC1c2cc([Si](C)(C)C)ccc2-c2ccc([Si](C)(C)C)cc21
Response line: 107 to 108 °C

Prompt line: Indicate its recorded melting point; the compound in question is CCCC(=O)c1cnc2c(OCCOCCO)cccc2c1Nc1ccccc1C
Response line: 144 to 146 °C

* * *

Entries and their melting point

Example cases with answers are listed next.
compound="C=CC1(C(=O)c2ccc(Cl)cc2)C=CC=CC1Cl (configuration not stated)" readout_type="melting point" result="120 to 122 °C"
compound=CCOC(=O)/C=C/c1nc(COc2ccc(COc3nn(-c4ccccc4)cc3/C=C/P(=O)(OCC)OCC)cc2OC)c(C)o1 readout_type="melting point" result="130 to 131 °C"
compound=CCOC(=O)c1cc(-c2ccc(C(F)(F)F)cc2)n[nH]1 readout_type="melting point" result="162 °C"

Prompt line: Indicate its recorded melting point; the compound in question is Cc1nn(-c2ccc(Cl)cc2)c(C)c1NC(N)=S
Response line: 244 to 246 °C

Prompt line: Indicate its recorded melting point; the compound in question is C=Cc1ccc2c(c1)CC(CNC(=O)OC(C)(C)C)CC2 (configuration not stated)
Response line: 98 to 100 °C

Prompt line: Indicate its recorded melting point; the compound in question is CCNc1nc(Cl)c(Cl)c(N2CCN(CC[C@H]3CC[C@H](NC(=O)OC(C)(C)C)CC3)CC2)n1
Response line: 197 to 199 °C

Prompt line: Indicate its recorded melting point; the compound in question is CCCCCCCCCCCCCCCCN(CCCCCCCCCCCCCCCC)C(CCCCN)C(=O)O (configuration not stated)
Response line: 124 to 125 °C

Prompt line: Indicate its recorded melting point; the compound in question is CCN1CCN(c2ccc(Br)nc2)CC1
Response line: 30 to 31 °C

Prompt line: Indicate its recorded melting point; the compound in question is COc1ccc2[nH]c(CC(C)C)c(C=O)c2c1
Response line: 146 to 147 °C

Prompt line: Indicate its recorded melting point; the compound in question is Nc1nnc(SCCCCc2ccccc2)s1
Response line: 111 °C

* * *

Entries and their melting point

Example cases with answers are listed next.
molecule="CCOC(=O)C1CSC(COc2ccccc2OC)N1 (centres undefined)" result="50 °C"
molecule="O=C(O)C1=Cc2cc(I)ccc2OC1C(F)(F)F (centres undefined)" result="168 to 170 °C"
molecule=O=C(Nc1ccc(-n2nccn2)c(F)c1)OCc1ccccc1 result="99.5 to 101 °C"
molecule=COc1c(Cl)cccc1NS(=O)(=O)c1cc(S(=O)(=O)Nc2cccc(Cl)c2OC)c2cc(O)ccc2c1 result="164 to 166 °C"
molecule=Cc1oc2c(C)c(C)c(NC(=O)c3ccccc3)c(C)c2c1-c1ccc(C(C)C)cc1 result="225 to 227 °C"

Prompt line: Indicate its recorded melting point; the molecule in question is CN1C(=O)CC[C@]2(C)c3ccc(-c4ccc([N+](=O)[O-])s4)cc3CC[C@@H]12
Response line: 147 to 149 °C

Prompt line: Indicate its recorded melting point; the molecule in question is C=C(C1=C(CCC(=O)O)C(=O)CC1=O)c1ccccc1
Response line: 116 to 117 °C

Prompt line: Indicate its recorded melting point; the molecule in question is O=CNc1ncc(C#Cc2ccc(Cl)cc2)c(Sc2ccc(O)cc2)n1
Response line: 261 to 262 °C

Prompt line: Indicate its recorded melting point; the molecule in question is C[C@@H](NC(=O)c1c[nH]c2ncc(-c3nn(C)c4cc(Cl)cc(F)c34)nc12)C(=O)N1CC(C#N)C1
Response line: 267 to 268 °C

* * *

READOUT TYPE: melting point

Example cases with answers are listed next.
compound=O=c1nc(-c2cccc(CCOP(=O)(O)O)n2)sc2ccccc12 result="235 to 237 °C"
compound="CC(Oc1cc2sc(NC(=O)CCCN3CCCC3)nc2cc1F)c1c(Cl)ccc(F)c1Cl (stereo unspecified)" result="153 to 157 °C"
compound=CC(=NOCc1ccc2nonc2c1)c1ccc(O)c(F)c1 result="125 to 126 °C"

Prompt line: Indicate its recorded melting point; the compound in question is CC(=O)OCC1OC(OS(=O)(=S)c2ccccc2)C(OC(C)=O)C(OC(C)=O)C1OC(C)=O (stereo unspecified)
Response line: 53 to 54 °C

Prompt line: Indicate its recorded melting point; the compound in question is CC(=O)c1ccc(OCc2ccccc2)cc1O
Response line: 107 to 108 °C

Prompt line: Indicate its recorded melting point; the compound in question is CCCCCCC(O)CCCCCCCC(COC(C)=O)(COC(C)=O)NC(C)=O (stereo unspecified)
Response line: 82 to 84 °C

Prompt line: Indicate its recorded melting point; the compound in question is Cc1c(Cl)c(C(=O)O)cc(Cl)c1C(=O)O
Response line: 169 to 171 °C

Prompt line: Indicate its recorded melting point; the compound in question is C=CCc1cc(C(=O)c2ccnn2C)c(Cl)c(Cl)c1O
Response line: 141 to 143 °C

Prompt line: Indicate its recorded melting point; the compound in question is CCCc1cc(C(=O)O)ccc1OCCCCCCc1cccc(OC)c1OC
Response line: 107 to 108 °C

Prompt line: Indicate its recorded melting point; the compound in question is Sc1nnc(-c2ccc3ncsc3c2)o1
Response line: 274 to 275 °C

Prompt line: Indicate its recorded melting point; the compound in question is O=C(CCc1c(C=C2C(=O)Nc3ccccc32)[nH]c2c1CCCC2)NCCN1CCOCC1
Response line: 256 to 258 °C

Prompt line: Indicate its recorded melting point; the compound in question is O=c1[nH]c(COc2ccc(Cl)c(Cl)c2)nc2nccnc12
Response line: 285 to 287 °C

Prompt line: Indicate its recorded melting point; the compound in question is COc1cc(-n2nc(Cl)cc2-c2ccc(S(C)(=O)=O)cc2)ccc1[N+](=O)[O-]
Response line: 170 to 175 °C

Prompt line: Indicate its recorded melting point; the compound in question is COC(=O)c1ccc(OCC(=O)c2cc3cc(C(C)C)ccc3o2)cc1
Response line: 95 to 97 °C

Prompt line: Indicate its recorded melting point; the compound in question is CN(C)C1(c2ccccc2Cl)C(=O)N(Cc2ccc(C(=O)NC(C)(C)C)cc2)c2ccc(Cl)cc21 (stereo unspecified)
Response line: 177 to 178 °C

Prompt line: Indicate its recorded melting point; the compound in question is CCOC(=O)c1cn(C2CC2)c2cc(F)c(F)c(C)c2c1=O
Response line: 185 to 187 °C

* * *

Entries and their melting point

compound=CN(C)c1ccc2sc(S(N)(=O)=O)cc2c1 readout_type="melting point" result="197 to 199 °C"

Prompt line: Indicate its recorded melting point; the compound in question is COc1ccc(C(=O)NC(=S)NCc2ccccc2C(N)=O)cc1
Response line: 140 to 143 °C

Prompt line: Indicate its recorded melting point; the compound in question is CN1CCCCC1Cn1nc(-c2c(-c3ccccc3)nn3ccccc23)ccc1=O (centres undefined)
Response line: 154 to 155 °C

Prompt line: Indicate its recorded melting point; the compound in question is NNC(=O)Nc1ccc(-n2ncn(-c3ccc(OCC(F)(F)C(F)F)cc3)c2=O)cc1
Response line: > 350 °C

Prompt line: Indicate its recorded melting point; the compound in question is Cc1c(C(F)(F)F)cnn(-c2cc(OCC3CCC3)c(Cl)cc2F)c1=O
Response line: 85.3 °C

Prompt line: Indicate its recorded melting point; the compound in question is CCCCC(=O)N(Cc1ccc(-c2ccccc2-c2nc(=O)s[nH]2)cc1)c1sccc1C(=O)O
Response line: 148 to 149 °C

Prompt line: Indicate its recorded melting point; the compound in question is CCCN1C(=O)N2C[C@@H](Cc3ccccc3)N=C2c2c1nc(Br)n2Cc1ccccc1
Response line: 200 to 206 °C

Prompt line: Indicate its recorded melting point; the compound in question is Cc1cccc(Cl)c1S(=O)(=O)NC(=O)n1nc(Br)n(N(C)C)c1=O
Response line: 163 °C

Prompt line: Indicate its recorded melting point; the compound in question is C(=Cc1ccccc1)C=Nc1ccc(Cc2ccc(N=CC=Cc3ccccc3)cc2)cc1
Response line: 162 to 164 °C
